# SUBJECT OF TEST: IKZF1 (Homo sapiens (Human), UniProt Q13422+Q96SW2)
# Sequence (Q13422 whole entry): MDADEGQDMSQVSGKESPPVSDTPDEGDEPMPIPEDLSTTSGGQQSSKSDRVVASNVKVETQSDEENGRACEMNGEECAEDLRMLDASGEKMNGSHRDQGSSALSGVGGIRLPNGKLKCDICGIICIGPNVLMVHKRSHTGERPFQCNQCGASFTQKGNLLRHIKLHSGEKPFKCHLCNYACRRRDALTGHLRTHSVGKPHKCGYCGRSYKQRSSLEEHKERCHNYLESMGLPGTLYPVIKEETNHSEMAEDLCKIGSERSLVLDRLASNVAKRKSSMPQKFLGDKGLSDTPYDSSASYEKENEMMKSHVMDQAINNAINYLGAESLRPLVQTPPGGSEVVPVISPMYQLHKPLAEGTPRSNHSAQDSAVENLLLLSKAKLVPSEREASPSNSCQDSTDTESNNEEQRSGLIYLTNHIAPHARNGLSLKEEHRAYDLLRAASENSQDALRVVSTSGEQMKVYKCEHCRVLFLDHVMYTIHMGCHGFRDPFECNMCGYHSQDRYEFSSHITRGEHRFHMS
# Sequence (Q96SW2 whole entry): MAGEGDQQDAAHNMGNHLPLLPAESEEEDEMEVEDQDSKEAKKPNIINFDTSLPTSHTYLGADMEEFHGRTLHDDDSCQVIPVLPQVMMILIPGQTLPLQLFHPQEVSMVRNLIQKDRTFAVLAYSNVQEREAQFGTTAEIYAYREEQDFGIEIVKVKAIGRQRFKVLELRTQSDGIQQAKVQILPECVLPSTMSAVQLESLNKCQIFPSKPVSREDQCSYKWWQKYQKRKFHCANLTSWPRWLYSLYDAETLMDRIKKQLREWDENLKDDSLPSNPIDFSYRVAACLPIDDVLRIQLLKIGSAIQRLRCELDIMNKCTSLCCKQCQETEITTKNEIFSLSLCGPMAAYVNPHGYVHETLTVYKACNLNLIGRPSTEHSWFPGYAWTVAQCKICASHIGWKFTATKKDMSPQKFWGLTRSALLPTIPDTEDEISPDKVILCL
# Sequence (Q16531 2-1140 partner): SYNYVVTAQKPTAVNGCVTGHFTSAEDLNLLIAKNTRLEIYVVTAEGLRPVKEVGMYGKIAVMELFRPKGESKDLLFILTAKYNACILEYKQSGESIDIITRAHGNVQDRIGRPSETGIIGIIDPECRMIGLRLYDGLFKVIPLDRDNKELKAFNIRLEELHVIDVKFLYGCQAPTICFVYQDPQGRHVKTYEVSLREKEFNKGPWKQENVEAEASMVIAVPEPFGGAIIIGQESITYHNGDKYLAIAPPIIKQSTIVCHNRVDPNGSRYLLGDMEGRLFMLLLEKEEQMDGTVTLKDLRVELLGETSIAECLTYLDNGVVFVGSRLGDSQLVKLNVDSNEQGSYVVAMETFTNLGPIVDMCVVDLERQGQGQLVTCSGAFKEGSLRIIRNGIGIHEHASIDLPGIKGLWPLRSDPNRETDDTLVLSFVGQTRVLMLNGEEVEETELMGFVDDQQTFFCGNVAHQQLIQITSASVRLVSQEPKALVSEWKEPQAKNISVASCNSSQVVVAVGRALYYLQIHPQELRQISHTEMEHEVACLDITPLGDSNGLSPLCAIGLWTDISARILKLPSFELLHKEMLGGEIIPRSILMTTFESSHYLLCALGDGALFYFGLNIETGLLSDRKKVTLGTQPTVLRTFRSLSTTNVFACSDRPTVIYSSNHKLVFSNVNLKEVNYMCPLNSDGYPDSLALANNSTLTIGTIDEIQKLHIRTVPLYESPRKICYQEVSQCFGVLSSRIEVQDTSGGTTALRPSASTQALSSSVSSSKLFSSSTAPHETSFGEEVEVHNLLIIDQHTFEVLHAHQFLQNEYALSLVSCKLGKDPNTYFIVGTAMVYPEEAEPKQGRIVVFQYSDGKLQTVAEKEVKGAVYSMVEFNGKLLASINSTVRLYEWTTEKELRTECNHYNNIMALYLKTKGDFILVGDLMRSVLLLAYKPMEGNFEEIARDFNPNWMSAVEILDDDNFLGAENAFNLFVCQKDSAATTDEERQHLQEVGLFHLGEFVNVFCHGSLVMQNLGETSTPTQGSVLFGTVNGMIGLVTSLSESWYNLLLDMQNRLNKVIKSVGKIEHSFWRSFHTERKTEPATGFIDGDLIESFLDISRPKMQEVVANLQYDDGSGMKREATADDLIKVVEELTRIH
# PROCEDURE TEXT: In vitro IKZF1 HiBit Assay (HEK293T Flp-in-HiBiT-IKZF1 stable cell line)
# Assay type: cell-based
# CONDITIONS: HEK-293T; HEK293T Flp-in-HiBiT-IKZF1 stable cell line, 6 hrs incubation; read-out: IKZF1 HiBit Dmax (%)
QUANTITY: Dmax

Example entries begin here.
MOLECULE	Dmax
COC1CCN(Cc2cc(-c3ccc4c(c3)CN(C3CCC(=O)NC3=O)C4=O)nc3c2ccn3C)CC1 (stereo not shown)	20 to 40%
O=C1CCC(N2Cc3cc(-c4cc(CN5CCCC5)c5ccn(C6CCCCC6)c5n4)ccc3C2=O)C(=O)N1 (stereo not shown)	< 20%
CC(C)Nc1n[nH]c2c(CN3CCCC3)cc(-c3ccc4c(c3F)CN(C3CCC(=O)NC3=O)C4=O)nc12 (stereo not shown)	< 20%

Consider the additional molecule presented here.
Problem: Send back IKZF1 (Homo sapiens (Human), UniProt Q13422+Q96SW2) Dmax of CNc1[nH]nc2c(CN3CCCC3)cc(-c3ccc4c(c3F)CN(C3CCC(=O)NC3=O)C4=O)nc12 (stereo not shown) only.
Result: 60 to 80%
